Each recorded value in this set is attributed to paper PMC11915372.

# Type: in vitro ADME, mouse
# run_parameters: intrinsic clearance (Cli), mouse hepatocytes; Tables 1-4
Recorded Mouse Heps Cl for the following compounds

{"columns": ["smiles_str", "Mouse Heps Cl"],
 "data": [
  ["COC(=O)c1nn(C)cc1NC(=O)c1c(F)c(F)c(F)c(F)c1F", ">50 mLmin/g"],
  ["Fc1c(F)c(F)c(-c2nc3c(N4CCOCC4)ncnc3o2)c(F)c1F", ">50 mLmin/g"],
  ["CN(C)c1ncnc2sc(-c3c(F)c(F)c(F)c(F)c3F)nc12.Cl", ">50 mLmin/g"],
  ["CCOC(=O)c1nc(C)oc1NC(=O)c1c(F)c(F)cc(F)c1F", "0.88 mLmin/g"]
]}
